All values here come from the DeepSol protein solubility set.

assay: soluble on expression in E. coli; label from the status in PepcDB or PDB records
Readout: soluble on expression in E. coli

Chain	Readout Value
MNDTAGELEFVPLAANDDETVGQWLDLMALAAETGPRAAPPCNVDMVGSLRFAPPATALDDWVVRSGGRVVGALRLALPDGAPTARVDQLLVHPGRRRRGIGRALWAHARELARKHDRTTLTATVVESLPSGPAQDPGPAAFAAAMGAHRSDIPAGTHQWLDLDRHDPLADGVPAVPAGYSLVTWGTITPDEYAVPVSELELSLGAGPVDRAAQEVRTSYARQFETMRVGRGRRAYHTGAVHDATGALAGYTSVSKTTGNPAYALQGMTVVHREHRGHALGTLLKLANLEYVLRHEPEVRLVETANAEDNHPMIAVNAALGFEPYDRWVFWTAEAGPSD	soluble
MSLRIRVPATTANLGPGFDSCGLALTLYLTLDIGAEADSWYIEHNIGGGIPHDETNVIIETALNLAPNLTPHHLVMTCDIPPARGLGSSSAAVVAGIELANTLAELNLSKEEKVRIAAEIEGHPDNVAPAVLGNWVVGAKLDGEDFYVRHLFPDCALIAFIPKAELLTSESRGVLPDTLPFKEAVQASSIANVMIAAILRNDMTLAGEMMERDLWHEKYRSQLVPHLAQIRDVAKNQGAYAACLSGAGPTVLVFAPRNLANKLQTSLQTLEIDADVLLLDVEGSGAEVFREGHHHHHH	soluble
